# experimental target: T1, GST-hTEAD1(209-426) (human, UniProt P28347 209-426)
# T1 construct: A 3C protease site stands between tags and protein; also called human TEAD1; source: E. coli BL21 DE3 RIL, purified (His Trap, SEC); not shown: GST, N-terminal, kept
# T1 sequence (P28347 209-426): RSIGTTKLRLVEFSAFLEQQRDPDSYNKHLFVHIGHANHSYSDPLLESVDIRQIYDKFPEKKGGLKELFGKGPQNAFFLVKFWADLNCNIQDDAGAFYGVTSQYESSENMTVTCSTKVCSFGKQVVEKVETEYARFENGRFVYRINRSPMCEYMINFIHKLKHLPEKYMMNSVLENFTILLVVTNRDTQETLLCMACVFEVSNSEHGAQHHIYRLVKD
# protocol description: SPR; GST-hTEAD1 or mTEAD4 amine-coupled to a CM5 chip (10 mM MES pH 6.4), peptides as analytes; 10 mM HEPES, 150 mM NaCl, 0.05% Tween-20, pH 7.4, 20 °C, 30 µL/min; steady-state fit, 1:1 model
# condition summary: both partners purified
Bridge positions count the residues as written; N and C are the ends. Ends that are not written are not given here.
outcome measure: Kd

Ac-SVEDHFAKALGDTWLAIKAA (lactam 3-18, macrocyclic VGL4 two-helix motif 4E with one alanine; numbers count on: mouse VGL4 as in PDB 4LN0; Synthesised on Rink amide resin: C-terminal amide surmised; source: synthetic peptide) [peptide 25 (alanine scan of 4E), acetylated]
0.75 µM
Ac-SVEDHFAKAAGDTWLQIKAA (lactam 3-18, macrocyclic VGL4 two-helix motif 4E with one alanine; numbers count on: mouse VGL4 as in PDB 4LN0; Synthesised on Rink amide resin: C-terminal amide surmised; source: synthetic peptide) [peptide 20 (alanine scan of 4E), acetylated]
> 100 µM
Ac-SVEDHFAKALGDAWLQIKAA (lactam 3-18, macrocyclic VGL4 two-helix motif 4E with one alanine; numbers count on: mouse VGL4 as in PDB 4LN0; Synthesised on Rink amide resin: C-terminal amide surmised; source: synthetic peptide) [peptide 22 (alanine scan of 4E), acetylated]
91 µM
Ac-SVEDHFAKALGDTALQIKAA (lactam 3-18, macrocyclic VGL4 two-helix motif 4E with one alanine; numbers count on: mouse VGL4 as in PDB 4LN0; Synthesised on Rink amide resin: C-terminal amide surmised; source: synthetic peptide) [peptide 23 (alanine scan of 4E), acetylated]
7.8 µM
Ac-AVEDHFAKALGDTWLQIKAA (lactam 3-18, macrocyclic VGL4 two-helix motif 4E with one alanine; numbers count on: mouse VGL4 as in PDB 4LN0; Synthesised on Rink amide resin: C-terminal amide surmised; source: synthetic peptide) [peptide 14 (alanine scan of 4E), acetylated]
1.5 µM
Ac-SVEDAFAKALGDTWLQIKAA (lactam 3-18, macrocyclic VGL4 two-helix motif 4E with one alanine; numbers count on: mouse VGL4 as in PDB 4LN0; Synthesised on Rink amide resin: C-terminal amide surmised; source: synthetic peptide) [peptide 17 (alanine scan of 4E), acetylated]
> 100 µM
Ac-SVEDHFAKALGDTWLQAKAA (lactam 3-18, macrocyclic VGL4 two-helix motif 4E with one alanine; numbers count on: mouse VGL4 as in PDB 4LN0; Synthesised on Rink amide resin: C-terminal amide surmised; source: synthetic peptide) [peptide 26 (alanine scan of 4E), acetylated]
2.7 µM
